The reported measurements were obtained from PubChem BioAssay.

assayed_system: Torsin-1A (Homo sapiens)
method_summary: TOR1A wild-type binding on microarray – cell lysate, small-molecule microarray, lysate, 635/667 nm, primary screen (AID 1149)
protocol_conditions: COS7 hTOR1A-WT lysate, 635 nm fluorescence, higher = more signal
measured_quantity: composite z-score
Respond with the number and no other words.

1) O=C1[C@H]2C=C(I)[C@H](C[C@@H]2OCCCCCCO)[C@@]12CO2 ... 0.349

[ask] Consider the compound COc1ccc(C#Cc2ccc3c(c2)[C@]2(C(=O)N3)[C@H](C(=O)O)[C@H]3C(=O)O[C@H](c4ccccc4)[C@H](c4ccccc4)N3[C@@H]2c2ccccc2OCCO)cc1 . State its measured composite z-score.
[reply] 0.65

[ask] Consider the compound COc1ccc(NN2C(C(O)c3ccc(I)cc3)C=CC3C(=O)N(C4CCCCC4)C(=O)C32)cc1 (centres undefined) . State its measured composite z-score.
[reply] 0.237

[ask] Consider the compound COc1ccc([Si](C)(C)[C@H]2[C@H](CCO)O[C@@]3(C(=O)N(Cc4ccc(NC(=O)[C@H](C)O)cc4)c4ccccc43)[C@@H]2C)cc1 . State its measured composite z-score.
[reply] 0.189

[ask] Consider the compound C=C(CCCC)/C(=C/C[C@H](OC(=O)c1ccncc1)c1ccccc1OCCO)c1cc(C(=O)OC)ccc1OC . State its measured composite z-score.
[reply] 0.0152

[ask] Consider the compound N#Cc1ccc(NN2C(C(O)C3CC=CCC3)C=CC3C(=O)N(c4ccccc4)C(=O)C32)cc1 (centres undefined) . State its measured composite z-score.
[reply] -0.694
